# system_under_test: recombinant PRL-1 (Homo sapiens)
# Construct: 6xHis (N, cleaved yes); made in house; host or cells: E. coli One Shot BL21 Star
# protocol_details: In vitro phosphatase assay (DiFMUP hydrolysis), PRL-1; note: test concentration or dose not given here
# Type: biochemical
# condition_summary: FDA-approved drug screen; activity compared to DMSO
Reported % Phosphatase Activity (compared to DMSO) PRL-1 values for the following molecules.
Value expressed in %; do not type the unit.

Below are worked cases with known answers.
| molecule | system_under_test | recorded_measurement |
| --- | --- | --- |
| CN[C@@H]1[C@H](O)[C@H](NC)[C@H]2O[C@@]3(O)C(=O)C[C@@H](C)O[C@H]3O[C@@H]2[C@H]1O.Cl.Cl [Spectinomycin HCl] | recombinant PRL-1 (Homo sapiens) | 109 |
| O=C(O[C@H]1CN2CCC1CC2)N1CCc2ccccc2[C@@H]1c1ccccc1 [Solifenacin succinate] | recombinant PRL-1 (Homo sapiens) | 88 |
| C[C@]1(c2nc3c(C(N)=O)cccc3[nH]2)CCCN1 [Veliparib (ABT-888)] | recombinant PRL-1 (Homo sapiens) | 108 |

Ask: Recorded % Phosphatase Activity (compared to DMSO) PRL-1 for NC[C@H]1O[C@H](O[C@H]2[C@H](O)[C@@H](O[C@H]3O[C@H](CO)[C@@H](O)[C@H](N)[C@H]3O)[C@H](N)C[C@@H]2N)[C@H](N)C[C@@H]1O [Tobramycin] , please?
Reply: 99

* * *

Reported % Phosphatase Activity (compared to DMSO) PRL-1 values for the following compounds.
# system_under_test: recombinant PRL-1 (Homo sapiens, UniProt Q93096)
# Construct: 6xHis (N, cleaved yes); made in house; host or cells: E. coli One Shot BL21 Star
# protocol_details: In vitro phosphatase assay (DiFMUP hydrolysis), PRL-1; note: test concentration or dose not given here
# Assay type: biochemical
Structures can show the parent of a compound that is named as a salt.
Value expressed in %; do not type the unit.

Below are worked cases with known answers.
| compound | recorded_measurement |
| --- | --- |
| CC(C)NC[C@H](O)COc1ccc(CCOCC2CC2)cc1.Cl [Levobetaxolol HCl] | 100 |
| N[C@@H](CCC(=O)N[C@@H](CS)C(=O)NCC(=O)O)C(=O)O | 93 |
| CN/C(=N/CCSCc1nc[nH]c1C)NC#N | 96 |
| CC(C)(C(=O)O)c1ccc(C(O)CCCN2CCC(C(O)(c3ccccc3)c3ccccc3)CC2)cc1 (stereo not drawn) [Fexofenadine HCl] | 109 |
| Cc1cnc(C(=O)NCCc2ccc(S(=O)(=O)NC(=O)NC3CCCCC3)cc2)cn1 [Glipizide] | 97 |
| Cc1cccc(C)c1N=C1NCCCS1 [Xylazine HCl] | 110 |
| CCCN[C@H]1CCc2nc(N)sc2C1 [Pramipexole dihydrochloride monohydrate] | 87 |
| Cc1cc(NS(=O)(=O)c2ccc(N)cc2)no1 | 91 |

Ask: Recorded % Phosphatase Activity (compared to DMSO) PRL-1 for C1CNCCN1 , please?
Reply: 95

* * *

# system_under_test: recombinant PRL-3 (Homo sapiens, UniProt O75365)
# Construct: 6xHis (N, cleaved yes); made in house; host or cells: E. coli One Shot BL21 Star
# Sequence (O75365 whole entry): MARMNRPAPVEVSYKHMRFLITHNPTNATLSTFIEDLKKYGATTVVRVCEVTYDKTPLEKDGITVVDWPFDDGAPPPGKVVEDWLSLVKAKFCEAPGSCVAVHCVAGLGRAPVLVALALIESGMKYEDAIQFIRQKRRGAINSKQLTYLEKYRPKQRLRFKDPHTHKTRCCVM
# protocol_details: In vitro phosphatase assay (DiFMUP hydrolysis), PRL-3; note: test concentration or dose not given here
# Format: biochemical
Structures can show the parent of a compound that is named as a salt.
Reported % Phosphatase Activity (compared to DMSO) PRL-3 values for the following compounds.
Value expressed in %; do not type the unit.

| compound | system_under_test | unit | recorded_measurement |
| --- | --- | --- | --- |
| C[C@]1(O)CC[C@H]2[C@@H]3CCC4=CC(=O)CC[C@]4(C)[C@@]3(F)[C@@H](O)C[C@@]21C | recombinant PRL-3 (Homo sapiens, UniProt O75365) | % | 76 |
| NC1=NCC2c3ccccc3Cc3ccccc3N12 (stereo not drawn) [Epinastine HCl] | recombinant PRL-3 (Homo sapiens, UniProt O75365) | % | 80 |
| CCc1cc(C(N)=S)ccn1 [Ethionamide] | recombinant PRL-3 (Homo sapiens, UniProt O75365) | % | 91 |
| CSc1ccc2c(c1)N(CCC1CCCCN1C)c1ccccc1S2 (stereo not drawn) [Thioridazine HCl] | recombinant PRL-3 (Homo sapiens, UniProt O75365) | % | 97 |
| CCCN[C@H]1CCc2nc(N)sc2C1 [Pramipexole dihydrochloride monohydrate] | recombinant PRL-3 (Homo sapiens, UniProt O75365) | % | 90 |

Ask: Recorded % Phosphatase Activity (compared to DMSO) PRL-3 for Nc1nc(=O)n([C@@H]2CS[C@H](CO)O2)cc1F , please?
Reply: 75

Ask: Consider next the compound C[N+](C)(C)CCO.[Cl-] [Choline Chloride] in the same way.
Reply: 75

Ask: Consider next the compound Nc1c2c(nc3ccccc13)CCCC2 [Tacrine HCl] in the same way.
Reply: 89

Ask: Consider next the compound Cn1cnc([N+](=O)[O-])c1Sc1ncnc2nc[nH]c12 in the same way.
Reply: 74

Ask: Consider next the compound CC(C)(C(=O)O)c1ccc(C(O)CCCN2CCC(C(O)(c3ccccc3)c3ccccc3)CC2)cc1 (stereo not drawn) [Fexofenadine HCl] in the same way.
Reply: 89

Ask: Consider next the compound CNC[C@H](O)c1ccc(O)c(O)c1 [Epinephrine HCl] in the same way.
Reply: 90

Ask: Consider next the compound Cc1cccc(C)c1N=C1NCCCS1 [Xylazine HCl] in the same way.
Reply: 91

Ask: Consider next the compound CS(=O)(=O)CCNCc1ccc(-c2ccc3ncnc(Nc4ccc(OCc5cccc(F)c5)c(Cl)c4)c3c2)o1.Cc1ccc(S(=O)(=O)O)cc1.Cc1ccc(S(=O)(=O)O)cc1 [Lapatinib (GW-572016) Ditosylate] in the same way.
Reply: 142

Ask: Consider next the compound CNC[C@H](O)c1ccc(O)c(O)c1 [Epinephrine Bitartrate] in the same way.
Reply: 82

Ask: Consider next the compound Clc1ccc2nsnc2c1NC1=NCCN1 [Tizanidine HCl] in the same way.
Reply: 76

* * *

Reported % Phosphatase Activity (compared to DMSO) PRL-1 values for the following compounds.
# system_under_test: recombinant PRL-1 (Homo sapiens, UniProt Q93096)
# Construct: 6xHis (N, cleaved yes); made in house; host or cells: E. coli One Shot BL21 Star
# Sequence (Q93096 1-173): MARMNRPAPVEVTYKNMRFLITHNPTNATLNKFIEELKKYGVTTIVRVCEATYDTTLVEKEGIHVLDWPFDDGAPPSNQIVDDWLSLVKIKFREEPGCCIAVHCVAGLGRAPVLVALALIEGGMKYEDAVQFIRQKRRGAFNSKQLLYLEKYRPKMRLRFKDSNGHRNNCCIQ
# protocol_details: In vitro phosphatase assay (DiFMUP hydrolysis), PRL-1; note: test concentration or dose not given here
# Format: biochemical
Structures can show the parent of a compound that is named as a salt.
Value expressed in %; do not type the unit.

| compound | system_under_test | unit | recorded_measurement |
| --- | --- | --- | --- |
| NC1=NCC2c3ccccc3Cc3ccccc3N12 (centres unmarked) [Epinastine HCl] | recombinant PRL-1 (Homo sapiens, UniProt Q93096) | % | 96 |
| C[N+](C)(C)CCO.[Cl-] [Choline Chloride] | recombinant PRL-1 (Homo sapiens, UniProt Q93096) | % | 99 |
| Cl.Cl.NCCc1c[nH]cn1 [Histamine 2HCl] | recombinant PRL-1 (Homo sapiens, UniProt Q93096) | % | 97 |

Ask: Recorded % Phosphatase Activity (compared to DMSO) PRL-1 for C[C@]1(O)CC[C@H]2[C@@H]3CCC4=CC(=O)CC[C@]4(C)[C@@]3(F)[C@@H](O)C[C@@]21C , please?
Reply: 90

Ask: Consider next the compound CC(C)NCC(O)COc1ccc(CCOCC2CC2)cc1.Cl (centres unmarked) [Betaxolol hydrochloride (Betoptic)] in the same way.
Reply: 84

* * *

# system_under_test: recombinant PRL-1 (Homo sapiens)
# Construct: 6xHis (N, cleaved yes); made in house; host or cells: E. coli One Shot BL21 Star
# protocol_details: In vitro phosphatase assay (DiFMUP hydrolysis), PRL-1; note: test concentration or dose not given here
# Format: biochemical
# condition_summary: FDA-approved drug screen; compared to DMSO
Structures can show the parent of a compound that is named as a salt.
measured_endpoint: % Phosphatase Activity (compared to DMSO) PRL-1 (%)
Value expressed in %; do not type the unit.

Below are worked cases with known answers.
| molecule | system_under_test | recorded_measurement |
| --- | --- | --- |
| CCCc1ncc(C[n+]2ccccc2C)c(N)n1.Cl.[Cl-] [Amprolium HCl] | recombinant PRL-1 (Homo sapiens) | 97 |
| CC[C@H](NC(=O)[C@H](C)NC)C(=O)N1C[C@@H](O)C[C@H]1Cc1c(-c2[nH]c3cc(F)ccc3c2C[C@@H]2C[C@H](O)CN2C(=O)[C@H](CC)NC(=O)[C@H](C)NC)[nH]c2cc(F)ccc12 | recombinant PRL-1 (Homo sapiens) | 138 |
| Cc1nc2n(c(=O)c1CCN1CCC(c3noc4cc(F)ccc34)CC1)CCCC2 | recombinant PRL-1 (Homo sapiens) | 104 |
| CCCCOc1ccc(C(=O)CCN2CCCCC2)cc1 [Dyclonine HCl] | recombinant PRL-1 (Homo sapiens) | 91 |
| O=C(N[C@H](CO)[C@H](O)c1ccc([N+](=O)[O-])cc1)C(Cl)Cl | recombinant PRL-1 (Homo sapiens) | 96 |
| O=c1ccc2ccc(OCCCCN3CCN(c4cccc5sccc45)CC3)cc2[nH]1 | recombinant PRL-1 (Homo sapiens) | 97 |
| C[C@@H]1C[C@H]2[C@@H]3CCC4=CC(=O)C=C[C@]4(C)[C@@]3(Cl)[C@@H](O)C[C@]2(C)[C@@]1(OC(=O)c1ccco1)C(=O)CCl [Mometasone furoate] | recombinant PRL-1 (Homo sapiens) | 85 |
| C[C@@H](O)[C@H]1C(=O)N2C(C(=O)[O-])=C(SC3Cn4cnc[n+]4C3)[C@H](C)[C@H]12 (stereo partly drawn) | recombinant PRL-1 (Homo sapiens) | 100 |

Ask: Recorded % Phosphatase Activity (compared to DMSO) PRL-1 for CCS(=O)(=O)N1CCN(c2ccc(Nc3ncc(C(N)=O)c(NC4CC4)n3)cc2)CC1 , please?
Reply: 95

Ask: Consider next the molecule CNC[C@H](O)[C@@H](O)[C@H](O)[C@H](O)CO in the same way.
Reply: 105

Ask: Consider next the molecule CN[C@@H]1[C@H](O[C@H]2[C@H](O[C@H]3[C@H](O)[C@@H](O)[C@H](NC(=N)N)[C@@H](O)[C@@H]3NC(=N)N)O[C@@H](C)[C@]2(O)CO)O[C@@H](CO)[C@H](O)[C@H]1O [Dihydrostreptomycin sulfate] in the same way.
Reply: 89

Ask: Consider next the molecule COCCCN1CCC(NC(=O)c2cc(Cl)c(N)c3c2OCC3)CC1 [Prucalopride] in the same way.
Reply: 97

Ask: Consider next the molecule COc1ccccc1OCC(O)CO (stereo not drawn) in the same way.
Reply: 102

Ask: Consider next the molecule Nc1ccccc1NC(=O)c1ccc(CNC(=O)OCc2cccnc2)cc1 in the same way.
Reply: 91

Ask: Consider next the molecule Cc1nnc(C(=O)NC(C)(C)c2nc(C(=O)NCc3ccc(F)cc3)c(O)c(=O)n2C)o1 in the same way.
Reply: 96
